- System: Wolbachia pipientis
- Method: Anti-Wolbachia Cell-Based Screen
- Assay type: functional
- Set-up: scale not given: in the data most compounds retested in dose-response had high values
- Measurement context: 5 µM
Out of some 48,000 compounds screened, about 13,000 (27%) showed an effect of 50% or more. The list shows a part of the results.

Compound: COc1cc(N2CCCC(c3nccn3Cc3cscn3)C2)nc(N)n1 (configuration not stated)
Percent Effect, %: 2.098
//
Compound: CCN(CC)C(=O)NCCc1ccn(-c2ccccc2)n1
Percent Effect, %: 134.9
//
Compound: COCCNC(=O)NCCc1ccn(-c2ccccc2)n1
Percent Effect, %: 4.023
//
Compound: COc1ccc(CNCCc2ccn(-c3ccccc3)n2)cc1O
Percent Effect, %: 7.82
//
Compound: CN1CC(=O)N(c2cnn(C)c2)CC12CCN(C(=O)c1ccsc1)C2.O=C(O)C(F)(F)F (configuration not stated)
Percent Effect, %: -13.31
//
Compound: O=C(NCc1cscn1)NC1CCN(c2ncccc2Cl)C1 (configuration not stated)
Percent Effect, %: -8.414
//
Compound: CCC(C(=O)NCCc1ccn(-c2ccccc2)n1)N1CCCC1=O (configuration not stated)
Percent Effect, %: 2.511
//
Compound: FC(F)(F)CCN(Cc1ccon1)C1CCC1
Percent Effect, %: 0.2197
//
Compound: CCSCCC(C)N(C)C(=O)c1ccc(C)o1 (configuration not stated)
Percent Effect, %: 3.019
//
Compound: CN1CC(=O)N(c2ccccc2)CC12CCN(C(=O)c1ccnnc1)C2.O=C(O)C(F)(F)F (configuration not stated)
Percent Effect, %: 94.6
//
Compound: CNC(=O)CS(=O)(=O)Cc1ccc(OC)c(F)c1
Percent Effect, %: -52.3
//
Compound: O=C(O)C(F)(F)F.c1ccc(NC[C@@H]2CCC[C@@H]3CN(c4ncccn4)C[C@@H]32)nc1
Percent Effect, %: 13.12
